systemUnderTest: CDK7/CycH/MAT1 (Homo sapiens, UniProt P50613)
Construct: purchased ProQinase 0366-0360-4
Sequence (P50613 whole entry): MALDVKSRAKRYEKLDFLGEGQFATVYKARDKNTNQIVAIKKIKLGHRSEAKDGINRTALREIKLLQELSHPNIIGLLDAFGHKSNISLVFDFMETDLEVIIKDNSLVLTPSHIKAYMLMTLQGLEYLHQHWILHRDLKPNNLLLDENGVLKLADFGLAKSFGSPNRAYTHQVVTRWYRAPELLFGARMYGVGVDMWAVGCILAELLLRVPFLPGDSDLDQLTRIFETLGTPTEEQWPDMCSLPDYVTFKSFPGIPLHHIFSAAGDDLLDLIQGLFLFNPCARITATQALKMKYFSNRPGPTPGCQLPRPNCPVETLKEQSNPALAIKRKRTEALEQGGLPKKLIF
Sequence (P51946 whole entry partner): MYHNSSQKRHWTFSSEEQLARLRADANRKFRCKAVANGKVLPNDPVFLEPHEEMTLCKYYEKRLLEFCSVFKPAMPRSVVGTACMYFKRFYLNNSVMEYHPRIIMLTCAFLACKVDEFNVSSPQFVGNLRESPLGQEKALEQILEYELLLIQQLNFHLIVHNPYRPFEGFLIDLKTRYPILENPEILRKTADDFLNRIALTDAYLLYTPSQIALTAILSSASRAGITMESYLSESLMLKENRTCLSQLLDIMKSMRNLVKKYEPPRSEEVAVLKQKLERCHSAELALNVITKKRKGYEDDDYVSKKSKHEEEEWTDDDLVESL
Sequence (P51948 whole entry partner): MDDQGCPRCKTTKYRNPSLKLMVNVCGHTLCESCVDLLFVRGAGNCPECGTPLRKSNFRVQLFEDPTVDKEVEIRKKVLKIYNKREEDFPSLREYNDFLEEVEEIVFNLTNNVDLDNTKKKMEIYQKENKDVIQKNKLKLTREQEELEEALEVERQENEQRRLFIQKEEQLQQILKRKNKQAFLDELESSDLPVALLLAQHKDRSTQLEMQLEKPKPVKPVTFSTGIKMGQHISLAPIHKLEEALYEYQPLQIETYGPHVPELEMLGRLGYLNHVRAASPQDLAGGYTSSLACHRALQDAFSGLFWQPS
assayProcedure: Kinase Glo Assay
Type: biochemical
assaySetup: Kinase-Glo Assay was used (compounds marked *), ATP 1 μM, 60 minutes at room temperature
Protocol: Assay Buffer: 50 mM HEPES, 3 mM MgCl2, 3 mM MnCl2, 1 mM DTT, 3 μM Na3VO4, pH 7.5 Kinase-Glo™ Assay (Promega #: V6711): ATP: 10 mM, Kinase-Glo™ Reagent 384-well white assay plates A ten point serial dilution of compound was prepared at 5× concentration in assay buffer with the final assay concentrations starting at 30 μM, 10 μM, 3 μM, 1 μM . . . 0 μM. […] The reaction was quantified by measuring luminescence on the Perkin Elmer Envision plate reader. Data was analyzed using Graphpad Prism 7 software.
Where a name gives a salt, the structure may show the parent alone.
measuredMetric: IC50

Per the record, Fc1cccc(Nc2cc(N[C@H]3CCCNC3)nc3c(C4CC4)cnn23)c1 [Compound I-19, hydrochloride] has IC50 of 100 to 1000 nM

Per the record, `Fc1cccc(Nc2cc(N[C@H]3CCCCNC3)nc3c(C4CC4)cnn23)c1` has IC50 of > 1000 nM

Per the record, `Fc1cccc(Nc2cc(N[C@H]3CCCNC3)nc3c(Cl)cnn23)c1` has IC50 of < 100 nM

Per the record, Fc1cccc(Nc2cc(N[C@H]3CCCNC3)nc3c(C4CCC4)cnn23)c1 [Compound I-23, hydrochloride] has IC50 of 100 to 1000 nM

---

systemUnderTest: CDK7/CycH/MAT1 (Homo sapiens)
Construct: purchased ProQinase 0366-0360-4
assayProcedure: Kinase Glo Assay
Format: biochemical
assaySetup: Kinase-Glo Assay was used (compounds marked *), ATP 1 μM, 60 minutes at room temperature
Counter-ions that a name gives are not always drawn.
measuredMetric: IC50

Per the record, `N#Cc1cnn2c(NCc3cc(F)cc(Cl)c3)cc(N[C@H]3CCCNC3)nc12` has IC50 of 100 to 1000 nM

Per the record, `N#Cc1cnn2c(NCc3cc(Cl)cc(Cl)c3)cc(N[C@H]3CCCNC3)nc12` has IC50 of 100 to 1000 nM

Per the record, `N#Cc1cnn2c(NCc3cccc(Cl)c3)cc(N[C@H]3CCCNC3)nc12` has IC50 of 100 to 1000 nM

Per the record, `OCCN1CCC[C@H](Nc2cc(NCc3cccc(F)c3)n3ncc(C4CC4)c3n2)C1` has IC50 of 100 to 1000 nM

Per the record, `O[C@H]1CCNC[C@@H]1Nc1cc(Nc2cccc(F)c2)n2ncc(Cl)c2n1` has IC50 of > 1000 nM

Per the record, Fc1cccc(CNc2cc(N[C@H]3CCCNC3)nc3c(C4CC4)cnn23)c1 [Compound I-32, hydrochloride] has IC50 of 100 to 1000 nM

Per the record, O[C@H]1CCNC[C@@H]1Nc1cc(Nc2cccc(F)c2)n2ncc(C3CCC3)c2n1 [Compound I-24, hydrochloride] has IC50 of > 1000 nM

Per the record, `Clc1cccc(Nc2cc(N[C@H]3CCCNC3)nc3c(Cl)cnn23)c1` has IC50 of 100 to 1000 nM

---

systemUnderTest: CDK7/CycH/MAT1 (Homo sapiens, UniProt P50613)
Construct: purchased ProQinase 0366-0360-4
assayProcedure: Kinase ADP-Glo Assay
Format: biochemical
assaySetup: ADP-Glo assay (compounds without *), ATP 1 μM, 60 minutes at room temperature
Protocol: Assay Buffer: 50 mM HEPES, 3 mM MgCl2, 3 mM MnCl2, 1 mM DTT, 3 μM Na3VO4, pH 7.5 Substrate RB: CTF Peptide (ProQinase #: 0040-0000-6) ADP-Glo™ Assay (Promega #: V9101): ATP: 10 mM, ADP-Glo™ Reagent, Kinase Detection Reagent 384-well white assay plates A ten point serial dilution of compound was prepared at 5× concentration in assay buffer with the final assay concentrations starting at 30 μM, 10 μM, 3 μM, 1 μM . . . 0 μM. […]
Counter-ions that a name gives are not always drawn.
measuredMetric: IC50

Per the record, `Cc1cccc(CNc2cc(N[C@H]3CCCNC3)nc3c(C#N)cnn23)c1` has IC50 of 100 to 1000 nM

Per the record, `Cc1cc(Nc2cc(O[C@H]3CCCNC3)nc3c(C4CCC4)cnn23)cc(C(F)(F)F)c1` has IC50 of < 100 nM

Per the record, `Cc1cc(Nc2cc(O[C@H]3CCCNC3)nc3c(C4CC4)cnn23)cc(C(F)(F)F)c1` has IC50 of 100 to 1000 nM

Per the record, `Cc1cc(C#N)cc(Nc2cc(N[C@H]3CCCNC3)nc3c(C4CC4)cnn23)c1` has IC50 of 100 to 1000 nM

Per the record, O[C@H]1CCNC[C@@H]1Nc1cc(Nc2cccc(F)c2)n2ncc(C3CC3)c2n1 [Compound I-21, hydrochloride] has IC50 of > 1000 nM

Per the record, `Cc1cc(F)cc(Nc2cc(NC[C@H]3CCNC[C@@H]3O)nc3c(C4CC4)cnn23)c1` has IC50 of < 100 nM

Per the record, `N#Cc1cccc(Nc2cc(N[C@H]3CCCNC3)nc3c(C4CC4)cnn23)c1` has IC50 of < 100 nM

Per the record, `Fc1cccc(Nc2cc(NC[C@H]3CCCNC3)nc3c(C4CC4)cnn23)c1` has IC50 of > 1000 nM

---

systemUnderTest: CDK7/CycH/MAT1 (Homo sapiens, UniProt P50613)
Construct: purchased ProQinase 0366-0360-4
assayProcedure: Kinase ADP-Glo Assay
Type: biochemical
assaySetup: ADP-Glo assay (compounds without *), ATP 1 μM, 60 minutes at room temperature
measuredMetric: IC50

Per the record, `N#Cc1cc(F)cc(Nc2cc(OC[C@H]3CCCNC3)nc3c(C4CCC4)cnn23)c1` has IC50 of > 1000 nM

Per the record, `N#Cc1cc(F)cc(Nc2cc(NC[C@H]3CCNC[C@@H]3O)nc3c(C4CCC4)cnn23)c1` has IC50 of < 100 nM

Per the record, `Cc1cc(C#N)cc(Nc2cc(N[C@H]3CCCNC3)nc3c(C4CCC4)cnn23)c1` has IC50 of < 100 nM

Per the record, `Cc1cc(C#N)cc(Nc2cc(O[C@H]3CCCNC3)nc3c(C4CC4)cnn23)c1` has IC50 of < 100 nM

Per the record, `FC(F)(F)c1cccc(Nc2cc(N[C@H]3CCCNC3)nc3c(C4CC4)cnn23)c1` has IC50 of < 100 nM

Per the record, `N#Cc1cnn2c(NCc3cccc(F)c3)cc(N[C@H]3CCCNC3)nc12` has IC50 of 100 to 1000 nM

Per the record, `Cc1cc(C#N)cc(Nc2cc(NC[C@H]3CCNC[C@@H]3O)nc3c(C4CC4)cnn23)c1` has IC50 of < 100 nM

Per the record, `CS(=O)(=O)c1cccc(Nc2cc(NC[C@H]3CCNC[C@@H]3O)nc3c(C4CC4)cnn23)c1` has IC50 of < 100 nM

---

systemUnderTest: CDK7/CycH/MAT1 (Homo sapiens, UniProt P50613)
Construct: purchased ProQinase 0366-0360-4
assayProcedure: Kinase ADP-Glo Assay
Type: biochemical
assaySetup: ADP-Glo assay (compounds without *), ATP 1 μM, 60 minutes at room temperature
Where a name gives a salt, the structure may show the parent alone.
measuredMetric: IC50

Per the record, N#Cc1cc(F)cc(Nc2cc(NC[C@@H]3CCNC[C@H]3O)nc3c(C4CC4)cnn23)c1 [Compound I-16, trifluoroacetate salt] has IC50 of > 1000 nM

Per the record, `Fc1cccc(Nc2cc(O[C@H]3CCCNC3)nc3c(C4CC4)cnn23)c1` has IC50 of < 100 nM

Per the record, O[C@@H]1CNC[C@@H](Nc2cc(Nc3cccc(F)c3)n3ncc(C4CC4)c3n2)C1 [Compound I-22, hydrochloride] has IC50 of > 1000 nM

Per the record, `Cc1cc(F)cc(Nc2cc(NC[C@H]3CCNC[C@@H]3O)nc3c(C4CCC4)cnn23)c1` has IC50 of < 100 nM

Per the record, `O[C@@H]1CNCC[C@H]1CNc1cc(Nc2cc(F)cc(F)c2)n2ncc(C3CC3)c2n1` has IC50 of 100 to 1000 nM

Per the record, `O[C@H]1CNCC[C@@H]1CNc1cc(Nc2cc(F)cc(F)c2)n2ncc(C3CC3)c2n1` has IC50 of 100 to 1000 nM

Per the record, `Fc1cc(Nc2cc(O[C@H]3CCCNC3)nc3c(C4CC4)cnn23)cc(C(F)(F)F)c1` has IC50 of 100 to 1000 nM

Ref: patent US20220144841A1
